The reader will find reported TGI values listed item by item below.
Tested on: SF-295 CNS
Test: NCI tumour cell line growth inhibition, 48 h
PROPERTY: TGI

{"columns": ["MOLECULE", "VALUE OBSERVED"],
 "data": [
  ["COc1cc([C@@H]2OC(=O)C3C2C(=O)O[C@H]3c2cc(OC)c(OC)c(OC)c2)cc(OC)c1OC (stereo not given in full)", "> 100 µM"],
  ["O=C1NC(=NC2CCCCC2)C2(CCN(CCCC3(c4ccc(F)cc4)OCCO3)CC2)N1c1ccccc1", "35.1 µM"],
  ["CC(C)CCc1c(Cl)nc(Cl)nc1Cl", "34.4 µM"],
  ["COc1cc(-c2oc(C=Nc3ccccc3)c([N+](=O)[O-])c2-c2ccc(O)c(OC)c2)ccc1O", "> 95.7 µM"],
  ["CSC1C(=O)c2ccccc2/C(=N/Nc2nc3ccccc3s2)C1C (stereo not given)", "> 50 µM"],
  ["CC1(C)C2C/C(=C\\c3ccccc3)C(=O)C1C2 (stereo not given)", "> 100 µM"],
  ["O=S1c2ccccc2SCSc2ccccc21", "> 100 µM"],
  ["COC(=O)[C@@]1(O)C[C@H]2O[C@]1(C)n1c3ccccc3c3c4c(c5c6ccccc6n2c5c31)C(=O)NC4", "2.31 µM"],
  ["Nc1cccc(C#Cc2cccc(C#Cc3cccc(N)n3)n2)n1", "> 100 µM"],
  ["Cc1ccc(C2=C(c3ccccc3)C(Br)(c3ccccc3)C(c3ccccc3)=C2c2ccc(C)cc2)cc1", "> 100 µM"],
  ["CCCCCCCSCC1C(=O)C23C(O)C1CCC2C12COC3(O)C(O)C1C(C)(C)CCC2O (stereo not given)", "33.4 µM"],
  ["Oc1c(N=Nc2ccccc2)c2ccccc2c2ccc3ccccc3c12", "> 100 µM"],
  ["N#CC(C#N)=C1SCC(=O)CS1", "> 100 µM"],
  ["COc1cc(/C=C2\\CC3C4CC[C@H]5C[C@@H](O)CC[C@]5(C)C4CC[C@]3(C)C2=O)cc(OC)c1OC (stereo not given in full)", "21.5 µM"],
  ["COc1ccc(/C=C/C(=O)c2cc3c(N)c(C(=O)Nc4ccccc4)sc3nc2C)cc1", "> 50 µM"],
  ["CC1=Nn2c(nnc2-c2ccc(N)cc2)NC(C)(C)C1", "> 100 µM"],
  ["C=CCN=C1NC(=O)C(CC(=O)Nc2ccc(C)cc2)S1 (stereo not given)", "> 100 µM"],
  ["c1ccc(SC(CCCCOC2CCCCO2)Sc2ccccc2)cc1 (stereo not given)", "> 100 µM"],
  ["CCOc1ccccc1NC(=O)C1=C(C)NC(C)=C(C(=O)Nc2ccccc2OCC)C1c1ccc(NC(C)=O)cc1", "71.5 µM"],
  ["Cc1cccc2c1C(=O)OC2(C)c1cccc2ccccc12 (stereo not given)", "> 100 µM"],
  ["O=C(N/N=C\\c1ccc(N(CCCl)CCCl)cc1Cl)c1cccnc1", "9.97 µM"],
  ["N#CN1CCC=C(c2cc3ccccc3[nH]2)C1", "> 448 µM"],
  ["Cc1ccc(S(=O)(=O)NC2=NS(=O)(=O)c3cc(C)c(Cl)cc3S2)cc1", "> 100 µM"],
  ["COC(=O)c1c(O)ccc2c1c1c(n2-c2ccc(OC)cc2)C(=O)c2ccccc2C1=O", "44.1 µM"],
  ["Clc1ccc(SCCCCCCCCCCSc2ccc(Cl)cc2)cc1", "> 71.4 µM"],
  ["Clc1ccc2c(c1)-c1ccccc1C1=NCCN12", "6.34 µM"],
  ["CC(=O)c1c[nH]cc1CO", "> 10 µM"],
  ["Nc1ccccc1OCc1cc(=O)c(OCc2ccccc2)co1", "95.1 µM"],
  ["N#CC(NNC(=O)c1ccccc1O)c1ccccc1 (stereo not given)", "> 100 µM"],
  ["N#C/C(=C\\c1ccc(Br)cc1)c1nc(-c2cc3ccccc3oc2=O)cs1", "> 50 µM"]
]}

* * *

Test system: MCF7 breast
Test: NCI tumour cell line growth inhibition, 48 h
PROPERTY: TGI

{"columns": ["MOLECULE", "VALUE OBSERVED"],
 "data": [
  ["COc1ccc2c(c1)N=C1CSC(c3c(Cl)cccc3[N+](=O)[O-])N1C2 (centres undefined)", "> 100 µM"],
  ["COC(=O)CC1(O)C(/C=C/c2ccccc2)C(C(=O)OC)C(=O)C(C(=O)OC)C1C(=O)OC (centres undefined)", "> 100 µM"],
  ["O=C(/C=C/c1ccc(C(F)(F)F)cc1)c1ccc(Nc2nc(NCCO)nc(N3CCOCC3)n2)cc1", "3.95 µM"],
  ["CC1/C(=N/Nc2ccc([N+](=O)[O-])cc2)CC2C3(C)CCC2(C(C)C(=O)O)C(=O)C13 (centres undefined)", "> 100 µM"],
  ["CN(C)CCCNc1ccc2nnn3c4ccc(OC(=O)c5ccc([N+](=O)[O-])cc5)cc4c(=O)c1c23", "> 38.9 µM"],
  ["OC(CNc1ccnc2cc(Cl)ccc12)CNC1CCCCC1 (centres undefined)", "21.9 µM"],
  ["O=C(CN1C(=O)c2ccccc2C1=O)C(O)CN1C(=O)c2ccccc2C1=O (centres undefined)", "> 100 µM"],
  ["O=Cc1ccc(-c2cccc([N+](=O)[O-])c2)s1", "> 100 µM"],
  ["COc1cc(/C=C2\\CC3C4CC[C@H]5C[C@@H](O)CC[C@]5(C)C4CC[C@]3(C)C2=O)cc(OC)c1OC (some centres undefined)", "28.6 µM"]
]}

* * *

System: OVCAR-5 ovarian
Experiment: NCI tumour cell line growth inhibition, 48 h
PROPERTY: TGI

{"columns": ["COMPOUND", "TEST TARGET", "VALUE OBSERVED"],
 "data": [
  ["CCOC(=O)C#Cc1c(CC(=O)OCC)nnn1[C@H]1O[C@@H](CO)[C@@H]2OC(C)(C)O[C@@H]21", "OVCAR-5 ovarian", "27.3 µM"],
  ["Clc1ccc(SCCCCCCCCCCSc2ccc(Cl)cc2)cc1", "OVCAR-5 ovarian", "> 78.3 µM"],
  ["CC(=O)c1cccc(NC(=O)C(=O)C(C(=O)c2ccccc2F)C2OC(=O)c3ccccc32)c1 (centres undefined)", "OVCAR-5 ovarian", "> 100 µM"],
  ["O=CC1C[C@@H](N2C(=O)O[C@@H](c3ccccc3)[C@H]2c2ccccc2)[C@@H]1COCc1ccccc1 (some centres undefined)", "OVCAR-5 ovarian", "52.3 µM"],
  ["CC1=NN(C(=O)c2ccccc2O)C(c2ccccc2Cl)C1C(=O)Nc1ccccc1 (centres undefined)", "OVCAR-5 ovarian", "> 43.7 µM"],
  ["O=C(N/N=C\\c1ccc(N(CCCl)CCCl)cc1Cl)c1cccnc1", "OVCAR-5 ovarian", "11.3 µM"],
  ["O=C1/C(=C/c2ccc(Cl)cc2)COc2ccc(O)c(O)c21", "OVCAR-5 ovarian", "3.21 µM"],
  ["CC1/C(=N/Nc2ccc([N+](=O)[O-])cc2)CC2C3(C)CCC2(C(C)C(=O)O)C(=O)C13 (centres undefined)", "OVCAR-5 ovarian", "> 100 µM"],
  ["OC(CNC1CCCC1)Cn1c2ccccc2c2ccccc21 (centres undefined)", "OVCAR-5 ovarian", "> 100 µM"],
  ["CC[N+]1(C)CCC(O)(/C=C/c2ccc(Cl)cc2)C(C(=O)/C=C/c2ccc(Cl)cc2)C1 (centres undefined)", "OVCAR-5 ovarian", "> 53.7 µM"],
  ["CCN1C[C@]2(C)CC[C@H](OCc3ccccc3)C34C5C[C@@H]6CC[C@](O)(C(C[C@@H]32)C14)C5[C@H]6OCc1ccccc1 (some centres undefined)", "OVCAR-5 ovarian", "> 100 µM"],
  ["CCCN(CCC)C(=O)[C@H](CC)[C@@H]1CC[C@@H](C)[C@@H]([C@H](C)[C@@H](O)[C@@H](C)C(=O)[C@H](CC)C2O[C@]3(C=C[C@@H](O)[C@]4(CC[C@@](C)([C@H]5CC[C@](O)(CC)[C@H](C)O5)O4)O3)[C@H](C)C[C@@H]2C)O1 (some centres undefined)", "OVCAR-5 ovarian", "5.27 µM"],
  ["N#CC(NNC(=O)c1ccccc1O)c1ccccc1 (centres undefined)", "OVCAR-5 ovarian", "> 100 µM"],
  ["COc1cc2cccc(NC(=O)c3cc(OC)c(OC)c(OC)c3Br)c2cc1OC", "OVCAR-5 ovarian", "51.9 µM"],
  ["CCCCc1ccc(Nc2nc(N)c3ncn(COCCO)c3n2)cc1", "OVCAR-5 ovarian", "> 100 µM"],
  ["Cc1csc2nc3[nH]ncc3c(=O)n12", "OVCAR-5 ovarian", "> 100 µM"],
  ["C=CCN=C1NC(=O)C(CC(=O)Nc2ccc(C)cc2)S1 (centres undefined)", "OVCAR-5 ovarian", "> 100 µM"],
  ["COc1ccc2c(c1)OC(N)=C(C#N)C2c1ccc(F)cc1 (centres undefined)", "OVCAR-5 ovarian", "> 100 µM"],
  ["CCCCCCCSCC1C(=O)C23C(O)C1CCC2C12COC3(O)C(O)C1C(C)(C)CCC2O (centres undefined)", "OVCAR-5 ovarian", "31.4 µM"]
]}
